B1: LINE1-full (parent)
chain: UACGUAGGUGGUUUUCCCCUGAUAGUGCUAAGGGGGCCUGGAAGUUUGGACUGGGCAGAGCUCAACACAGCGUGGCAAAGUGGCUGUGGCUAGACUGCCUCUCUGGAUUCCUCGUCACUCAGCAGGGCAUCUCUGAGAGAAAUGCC

Variants of: B1
Experiment: self-cleavage, relative activity (ratio to wild type); higher = more cleavage; in vitro, sequencing; the parent is a self-cleaving ribozyme
Given measured self-cleavage, output met if it is greater than or equal to 1 and not met if not.

Decide: is the reported value of self-cleavage for U39C C116U equal to or greater than 1?
met

// inclusive: self-cleavage at least 1? input: U12A A107U
met

Does the variant C103A U130C have recorded self-cleavage that is 1 or more?
met

Item G49A G72A with self-cleavage of 1 or above?
met

Hello, I need to know if G7A U109A has measured self-cleavage not below 1. Thanks!
met

hey, is self-cleavage for this one >= 1? C51A A107U
met

For this variant, is measured self-cleavage 1 or higher? C76U A142G
met

API: above_or_equal(metric=self-cleavage, cutoff=1) for item U12A U91C
not met

Confirm if self-cleavage reported for the variant A65U U109C is 1 or above.
not met

Tell me whether self-cleavage is at least 1 here: U39C A59G
not met

Please indicate if the recorded self-cleavage for U46A G89C meets or exceeds 1.
not met

Reported self-cleavage reaches at least 1 for A22C A129U ?
met

I'd appreciate it if you could say whether U73G U115C has self-cleavage at least equal to 1.
met

Could you verify whether the entry A64U U100A shows self-cleavage of no less than 1?
not met

Can G34U A138G be said to have self-cleavage at or above 1?
met

Is self-cleavage at least 1? Consider U13A U130A
met

Quick check, self-cleavage >= 1? C19A U26A
met

# check: self-cleavage of U47C U134C is greater than or equal to 1
met

Test whether the variant A43U U45G records self-cleavage of 1 or higher.
met

Determine whether this variant has self-cleavage no lower than 1: U12A A64G
not met

Determine whether measured self-cleavage meets or exceeds 1 for U62A G72C
not met

Exam item: decide whether the reported self-cleavage for A30U C56U is at least 1.
not met

Assess whether reported self-cleavage for A78U A142G sits at 1 or higher.
met

Form field: self-cleavage at least 1? Entry: U5A U45G
not met

self-cleavage >= 1 for A50C A94G ?
not met

Check if self-cleavage >= 1 (inclusive). Item: A64C U132C
not met

Evaluate U20G G34A : self-cleavage at minimum 1?
not met

Hi, just wondering whether C51A U96A shows self-cleavage of 1 or higher.
not met

Evaluate U109C G127A : self-cleavage at minimum 1?
met

Item G135A A140G with self-cleavage of 1 or above?
met

Does the variant U73C A78G have recorded self-cleavage that is 1 or more?
met

Answer whether self-cleavage of U73C A78C is greater than or equal to 1.
not met

Assess whether reported self-cleavage for U100A A107G sits at 1 or higher.
not met

Kindly determine if self-cleavage recorded for U15C U87C is above or exactly 1.
not met

hey, is self-cleavage for this one >= 1? A78G U81C
met

Does U62G U87A have a reported self-cleavage of at least 1?
not met

Could you please find out whether U12C A77U has self-cleavage that meets 1 or exceeds it?
met

Item U14C G114A with self-cleavage of 1 or above?
met

Dear colleague, could you confirm whether U45C G49A has self-cleavage at or above 1?
not met

Is self-cleavage at least 1? Consider U62C U143A
not met

Given the entry A6U A22G , answer whether its self-cleavage meets or surpasses 1.
not met

Determine whether measured self-cleavage meets or exceeds 1 for U13C U87C
not met

Kindly determine if self-cleavage recorded for U143C G144A is above or exactly 1.
met

API: above_or_equal(metric=self-cleavage, cutoff=1) for item U87C C90U
not met

Does U29G C99A have a reported self-cleavage of at least 1?
not met
